biological target: human HER3 receptor (human, UniProt P21860 20-1342); assay: cell-based or functional assay
Sequence (P21860 20-1342 limits assumed): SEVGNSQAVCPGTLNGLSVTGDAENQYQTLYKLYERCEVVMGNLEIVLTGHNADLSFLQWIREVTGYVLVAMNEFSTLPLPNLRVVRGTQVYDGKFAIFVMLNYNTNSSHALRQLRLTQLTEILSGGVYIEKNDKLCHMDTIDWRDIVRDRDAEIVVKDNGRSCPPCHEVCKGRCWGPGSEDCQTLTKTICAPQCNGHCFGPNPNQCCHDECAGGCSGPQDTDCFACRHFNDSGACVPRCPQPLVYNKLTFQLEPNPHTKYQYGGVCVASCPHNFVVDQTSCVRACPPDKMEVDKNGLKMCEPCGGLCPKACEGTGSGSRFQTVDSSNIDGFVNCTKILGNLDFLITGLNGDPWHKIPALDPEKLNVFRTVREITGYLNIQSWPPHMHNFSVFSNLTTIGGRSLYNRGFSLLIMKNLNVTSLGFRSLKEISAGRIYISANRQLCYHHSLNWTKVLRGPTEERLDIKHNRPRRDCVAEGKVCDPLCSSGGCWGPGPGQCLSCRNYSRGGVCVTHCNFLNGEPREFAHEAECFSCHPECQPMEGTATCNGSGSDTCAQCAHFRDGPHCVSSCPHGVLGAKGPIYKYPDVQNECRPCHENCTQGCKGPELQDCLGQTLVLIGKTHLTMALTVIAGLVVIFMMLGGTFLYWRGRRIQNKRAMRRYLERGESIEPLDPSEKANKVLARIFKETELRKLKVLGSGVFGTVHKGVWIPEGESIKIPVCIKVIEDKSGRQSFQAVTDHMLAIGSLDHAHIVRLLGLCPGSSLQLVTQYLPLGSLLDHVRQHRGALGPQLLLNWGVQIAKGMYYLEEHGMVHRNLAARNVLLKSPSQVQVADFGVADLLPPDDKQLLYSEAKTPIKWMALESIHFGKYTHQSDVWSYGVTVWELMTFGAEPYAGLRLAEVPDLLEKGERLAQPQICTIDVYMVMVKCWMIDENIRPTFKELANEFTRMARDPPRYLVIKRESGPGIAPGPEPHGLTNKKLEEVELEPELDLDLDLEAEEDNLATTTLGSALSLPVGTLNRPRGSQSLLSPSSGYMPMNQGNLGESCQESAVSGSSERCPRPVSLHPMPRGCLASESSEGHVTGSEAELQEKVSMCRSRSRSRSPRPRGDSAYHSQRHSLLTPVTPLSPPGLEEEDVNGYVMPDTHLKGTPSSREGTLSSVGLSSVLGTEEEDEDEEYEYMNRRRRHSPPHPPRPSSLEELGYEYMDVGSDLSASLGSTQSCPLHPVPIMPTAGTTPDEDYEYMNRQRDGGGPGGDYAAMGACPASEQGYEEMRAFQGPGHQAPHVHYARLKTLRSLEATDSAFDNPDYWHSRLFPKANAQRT
Hi there, I'd appreciate the recorded Phospho-HER3 ELISA IC50, heregulin induced HER3 phosphorylation, CHL-1 cells for every entry that follows.
Numbers only, in µg/mL.

Before answering, review these 3 worked examples.
{"columns": ["BINDER", "REPORTED VALUE"],
 "data": [
  ["humanized 1D9 Fc disabled antibody (antibody, V domains shown, also called humanized 1D9 H6L2 Fc disabled antibody) VH: QVQLVQSGAEVKKPGASVKVSCKASGYTFTSYWMHWVRQAPGQGLEWMGVIDPSDGYSHYNQKFKGKVTLTVDTSISTAYMELSRLRSDDTAVYYCAGGLAGTLDYWGQGTTVTVSS VL: DIQMTQSPSSLSASVGDRVTITCRSSQSIVHSSGNTYLQWFQQKPGKAPKLLIYKVSNRFSGVPSRFSGSGSGTDFTLTISSLQPEDFAVYYCFQGSHVPWTFGQGTKLEIKR", 0.0399],
  ["murine 1D9 antibody (M5.1D9.1F5) (antibody, V domains shown) VH: QVQLQQPGAELVRPGTSVKLSCKASGYTFTSYWMHWVKQRPGQGLEWIGVIDPSDGYSHYNQKFKGKATLTVDTSSSTAYMQLSSLTSEDSAVYYCAGGLAGTLDYWGQGTTLTVSS VL: DVLMTQTPLSLPVSLGDQASISCRSSQSIVHSSGNTYLQWFLQKPGQSPKLLISKVSNRFSGVPDRFSGSGSGTDFTLRISRVEAEDLGLYYCFQGSHVPWTFGGGTKLEIK", 0.0406],
  ["humanized 1D9 POTELLIGENT antibody (antibody, human IgG1, kappa, V domains shown, also called humanized 1D9 H6L2 POTELLIGENT antibody; humanized POTELLIGENT antibody) VH: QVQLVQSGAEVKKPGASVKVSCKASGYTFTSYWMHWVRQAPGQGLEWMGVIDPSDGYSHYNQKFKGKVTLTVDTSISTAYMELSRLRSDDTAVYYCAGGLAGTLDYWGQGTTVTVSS VL: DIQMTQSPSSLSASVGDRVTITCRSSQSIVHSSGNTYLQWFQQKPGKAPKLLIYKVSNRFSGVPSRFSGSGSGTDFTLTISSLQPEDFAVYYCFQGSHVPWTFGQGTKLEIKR", 0.0282]
]}

Consider the record given below.
Fill in the blank: the reported Phospho-HER3 ELISA IC50, heregulin induced HER3 phosphorylation, CHL-1 cells of murine 15D5 antibody (M5.15D5.2A1.1H10) (antibody, V domains shown) VH: EFQLQQSGPELVKPGASVKISCKASGYSFTDYNMNWVKQNNGKSLEWIGGINPNYGTTVYNQKFKGKATLTVDQSSSTAYMQLVSLTSEDSAVYYCARMTTIVPFDYWGQGTTLTVSS VL: DIQMTQTTFSLSASLGDRVTISCRASQDISNYLNWYQQKPDGTVKLLIYYTSTLHSGVPSRFSGSGSGTDYFLTIRNLEEEDIATYFCQQGYTLPWTFGGGTKLDIK is ____.
0.138

Source listed as patent WO2016059602A2.
